Where do the numbers come from? From patent US20100310640A1.

Target Desc: T1, HLA-DR DRB1*0701 (human)
T1 chain 1: not shown
T1 chain 2: not shown
Method Description: radioligand inhibition, purified HLA-DR
Conditions Used: remark: other sources report otherwise
pIC50: −log10 of the molar value.
pIC50 of 6 or higher: label 1. Under 6: label 0.

{"Binder": "AKGLQSLPTHDPSPL [Peptide 9019.0098]", "Qualitative Label": "label 0"}
{"Binder": "ERGPLEHLYSLHIPN [Peptide 9019.0190]", "Qualitative Label": "label 1"}
{"Binder": "HNQVRQVPLQRLRIV [Her/neu.88]", "Qualitative Label": "label 1"}
{"Binder": "TVGIMIGVLVGVALI [CEA.688 peptide 9019.05]", "Qualitative Label": "label 0"}
{"Binder": "RPRFRELVSEFSRMA [Peptide 9019.0095]", "Qualitative Label": "label 1"}
{"Binder": "SITVSASGTSPGLSA [CEA.671 peptide 9919.0143]", "Qualitative Label": "label 0"}
{"Binder": "GCQVVQGNLELTYLP [Her/neu.52]", "Qualitative Label": "label 0"}
{"Binder": "GYVIGTQQATPGPAY [CEA.81 peptide 9019.0110]", "Qualitative Label": "label 0"}
{"Binder": "RHLYQGCQVVQGNLE [Her/neu.47]", "Qualitative Label": "label 0"}
{"Binder": "DNSIRPEELLQMELL [Cyclin D1.129]", "Qualitative Label": "label 0"}
{"Binder": "LLTFWNPPTTAKLTI [CEA.24 peptide 9019.0105]", "Qualitative Label": "label 1"}
{"Binder": "FYTLHVIKSDLVNEE [CEA.119 peptide 9019.0114]", "Qualitative Label": "label 1"}
{"Binder": "GPAYSGREIIYPNAS [CEA.92 peptide 9019.0111]", "Qualitative Label": "label 0"}
{"Binder": "TMNMLGGGGSAGRKP [Peptide 9019.0184]", "Qualitative Label": "label 0"}
{"Binder": "EGPLPAARPAGATLE [Peptide 9019.0101]", "Qualitative Label": "label 0"}
{"Binder": "SDSVILNVLYGPDAP [CEA.123 peptide 9019.0119 (position 226)]", "Qualitative Label": "label 0"}
{"Binder": "FRELVSEFSRMARDP [Peptide 9019.0096]", "Qualitative Label": "label 0"}
{"Binder": "INGIPQQHTQVLFIA [CEA.629 peptide 9019.0139]", "Qualitative Label": "label 1"}
{"Binder": "SPGLSAGATVGIMIG [CEA.680 peptide 9019.0144]", "Qualitative Label": "label 1"}
{"Binder": "APTISPLNTSYRSGE [CEA.239 peptide 9919.0121]", "Qualitative Label": "label 0"}
{"Binder": "AEVLFRCPPCTPERL [Peptide 9019.0178]", "Qualitative Label": "label 0"}
{"Binder": "TEILKGGVLIQRNPQ [Her2/neu.146]", "Qualitative Label": "label 0"}
{"Binder": "MRKIVATWMLEVCEE [Cyclin D1.56]", "Qualitative Label": "label 1"}
{"Binder": "APTIRGDPECHLFYN [Peptide 9019.0022]", "Qualitative Label": "label 0"}
{"Binder": "LAALCRWGLLLALLP [Her/neu.3]", "Qualitative Label": "label 0"}
